TARGET UNDER TEST: cynomolgus monkey ABCC1 (UniProt Q864R9 1-1531)
Sequence (Q864R9 whole entry): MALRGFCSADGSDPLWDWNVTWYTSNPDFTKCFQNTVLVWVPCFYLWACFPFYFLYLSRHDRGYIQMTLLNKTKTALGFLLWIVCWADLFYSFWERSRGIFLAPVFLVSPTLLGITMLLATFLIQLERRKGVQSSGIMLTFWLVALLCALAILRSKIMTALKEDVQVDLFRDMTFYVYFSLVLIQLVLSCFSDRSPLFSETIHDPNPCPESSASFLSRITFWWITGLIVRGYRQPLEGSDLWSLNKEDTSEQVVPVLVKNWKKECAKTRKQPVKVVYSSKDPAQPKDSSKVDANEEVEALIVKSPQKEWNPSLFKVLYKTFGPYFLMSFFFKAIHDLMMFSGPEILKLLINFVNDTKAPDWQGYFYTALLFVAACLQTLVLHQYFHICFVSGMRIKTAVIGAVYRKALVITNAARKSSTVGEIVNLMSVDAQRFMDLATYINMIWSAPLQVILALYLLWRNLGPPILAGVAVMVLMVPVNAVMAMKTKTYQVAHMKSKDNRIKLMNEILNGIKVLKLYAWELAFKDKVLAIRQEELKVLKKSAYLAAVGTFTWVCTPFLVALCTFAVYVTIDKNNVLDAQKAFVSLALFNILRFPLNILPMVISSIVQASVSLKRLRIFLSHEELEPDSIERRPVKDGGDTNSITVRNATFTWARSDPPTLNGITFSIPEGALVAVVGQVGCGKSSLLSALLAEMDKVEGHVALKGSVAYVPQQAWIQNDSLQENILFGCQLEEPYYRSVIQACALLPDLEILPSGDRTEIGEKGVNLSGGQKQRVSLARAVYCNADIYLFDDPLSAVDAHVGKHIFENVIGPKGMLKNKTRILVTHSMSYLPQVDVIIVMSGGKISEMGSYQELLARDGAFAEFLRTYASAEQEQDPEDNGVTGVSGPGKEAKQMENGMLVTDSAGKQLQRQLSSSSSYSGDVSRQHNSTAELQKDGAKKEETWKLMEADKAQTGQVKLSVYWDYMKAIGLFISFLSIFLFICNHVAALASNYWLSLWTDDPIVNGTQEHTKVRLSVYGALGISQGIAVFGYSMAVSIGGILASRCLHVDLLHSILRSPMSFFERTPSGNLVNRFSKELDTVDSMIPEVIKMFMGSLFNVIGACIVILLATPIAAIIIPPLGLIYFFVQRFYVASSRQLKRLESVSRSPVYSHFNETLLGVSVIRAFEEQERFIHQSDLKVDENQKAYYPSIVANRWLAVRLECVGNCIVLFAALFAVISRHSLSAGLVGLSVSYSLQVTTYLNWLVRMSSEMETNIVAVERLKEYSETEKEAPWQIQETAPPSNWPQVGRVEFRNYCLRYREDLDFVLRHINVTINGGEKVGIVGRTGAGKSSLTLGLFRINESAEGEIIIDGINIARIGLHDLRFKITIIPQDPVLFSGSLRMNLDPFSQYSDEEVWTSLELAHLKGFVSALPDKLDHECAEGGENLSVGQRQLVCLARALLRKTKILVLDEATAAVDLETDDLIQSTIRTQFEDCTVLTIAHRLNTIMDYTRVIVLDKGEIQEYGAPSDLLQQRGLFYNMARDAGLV
ASSAY EXPLANATION: FACS titration on C6 cells; C6 cells
EXPERIMENTAL READOUT: Kd (nM)
Give bare numbers, in nM.

BINDER: C1.778b (antibody, V domains shown) VH: EVQRKESGPGLVQPSQTLSLTCTVSGFSLTNNGVSWVRQPPGKGLEWIAAISSGGSIYYNSAFKSRLSISRITSKSQVLLKMNSLQTEDTAMYFCARHRGYYGYNWGYFDYWGQGVMVTVSS VL: NIQLTQSPSLLSASVGDRVTLSCKGSQNIDNYLAWYQQKLGEPPKLLIYKTNSLQTGIPSRFSGSGSGTDYTLTISSLHSEDLATYYCYQYNNGYTFGAGTKLELKR
ASSAY VALUE: 28.2

Please state Kd for every binder in the list that follows.
1. C1.876 (antibody, V domains shown) VH: QVQLKESGPGLVQPSQTLSLTCTVSGFSLTNNGVSWVRQPPGKGLEWIAAMSSGGSIYYNSAFKSRLSISRHTSKSQVLLQMNSLQTEDTAMYFCTRHRGYYGYNWGYFDYWGQGVMVTVSS VL: DIQLTQSPSLLSASVGDSVSLRCKGSQNIYNYLAWYQQKLGEAPKLLIYKTNNLQTGIPSRFSGSGSGTDYTLTISSLNSEDLATYYCCQYNNGYTFGAGTKVELK
2. C1.773 (antibody, V domains shown) VH: EIQLAQSGPELVKPGASVKMSCKASGYSFIGYFMNWVKQSHGKSLEWIGRINPYNGDTFYNQKFKGKATLTVDKSSSTAHMELRSLTSEDSALYYCTRSGWGYDVYSFDYWGQGTLVTVSS VL: DIQMTQTPSSLSASLGDRVTISCRASQDISNYLNWYQQKPDGTVKLLIYYTSRLHSGVPSRFSGSGSGTDYSLTISNLEQEDIATYFCQQGNTLPWTFGGGTKLEIK

OUT:
3.7
19.1

The reported numbers originate from patent US20230272117A1.
